// data source = patent US11702404B2

# experimental protocol: Microsomal stability, human liver microsomes (predicted hepatic clearance)
# particulars: predicted from in vitro microsomal stability data
assay readout: Predicted Hepatic Clearance (Pred. Cl.) (mL/min/kg)
Respond with the bare value in mL/min/kg.

Predicted Hepatic Clearance (Pred. Cl.) for N#Cc1ccc(COc2cccc(-c3cc(F)c(Cc4nc5ccc(C(=O)O)cc5n4CC4(F)CC4)cc3F)n2)c(F)c1 [Example 729] is 1.83

Predicted Hepatic Clearance (Pred. Cl.) for N#Cc1ccc(COc2ccc(F)c(-c3cc(F)c(Cc4nc5ccc(C(=O)O)cc5n4C[C@@H]4CCO4)cc3F)n2)c(F)c1 [Example 793] is 5.67

Predicted Hepatic Clearance (Pred. Cl.) for N#CCC1(Cn2c(Cc3ccc(-c4cccc(OCc5ccc(C#N)cc5F)n4)cc3F)nc3ccc(C(=O)O)nc32)CC1 [Example 600] is 6.7

Predicted Hepatic Clearance (Pred. Cl.) for COCCn1c(Cc2ccc(-c3cccc(OCc4ccc(C#N)cc4F)n3)cc2C#CC2(CO)CC2)nc2ccc(C(=O)O)cc21 [Example 240] is 13.7

Predicted Hepatic Clearance (Pred. Cl.) for COc1cc(C#N)ccc1COc1nccc(-c2cc(F)c(Cc3nc4c(F)cc(C(=O)O)cc4n3C[C@@H]3CCO3)cc2F)n1 [Example 398] is 10.2

Predicted Hepatic Clearance (Pred. Cl.) for COCCn1c(Cc2ncc(-c3cccc(OCc4ccc(C#N)cc4F)n3)cc2Cl)nc2ccc(C(=O)O)cc21 [Example 518] is 5.33

---

# experimental protocol: Microsomal stability, human liver microsomes (predicted hepatic clearance)
# particulars: predicted from in vitro microsomal stability data
Given measured Predicted Hepatic Clearance (Pred. Cl.), output rule met if it is greater than or equal to 7 mL/min/kg and rule not met if not.

In: # bool: Predicted Hepatic Clearance (Pred. Cl.) of N#Cc1ccc(COc2cccc(-c3ccc(Cc4nc5ccc(C(=O)O)cc5n4C[C@H]4CCOC4)c(F)c3)n2)c(F)c1 >= 7 mL/min/kg
Out: rule not met

In: # bool: Predicted Hepatic Clearance (Pred. Cl.) of COCCn1c(Cc2ccc(-c3cccc(OCc4ccc(C#N)cc4F)n3)cc2C#CC2CC(F)(F)C2)nc2ccc(C(=O)O)cc21 >= 7 mL/min/kg
Out: rule not met

In: # bool: Predicted Hepatic Clearance (Pred. Cl.) of COCCn1c(Cc2ccc(-c3cccc(OCc4cccc5c4nnn5C)n3)cc2F)nc2ccc(C(=O)O)cc21 >= 7 mL/min/kg
Out: rule met

In: # bool: Predicted Hepatic Clearance (Pred. Cl.) of COCCn1c(Cc2ccc(-c3cccc(OCc4ccc(C#N)cc4F)n3)cc2C2=CCN(C(=O)OC(C)(C)C)CC2)nc2ccc(C(=O)O)cc21 >= 7 mL/min/kg
Out: rule not met

In: # bool: Predicted Hepatic Clearance (Pred. Cl.) of COC[C@H]1C[C@H](n2c(Cc3cc(F)c(-c4cccc(OCc5ccc(C#N)cc5F)n4)cc3F)nc3ccc(C(=O)O)cc32)C1 >= 7 mL/min/kg
Out: rule met

In: # bool: Predicted Hepatic Clearance (Pred. Cl.) of N#Cc1ccc(COc2cccc(-c3ccc(Cc4nc5ccc(C(=O)O)cc5n4CC4(CF)CC4)cc3F)n2)c(F)c1 >= 7 mL/min/kg
Out: rule not met

---

Exercise: state measured EC50 for each of the compounds provided.
# measured on: GLP-1R (Homo sapiens)
# Sequence (P43220 24-463): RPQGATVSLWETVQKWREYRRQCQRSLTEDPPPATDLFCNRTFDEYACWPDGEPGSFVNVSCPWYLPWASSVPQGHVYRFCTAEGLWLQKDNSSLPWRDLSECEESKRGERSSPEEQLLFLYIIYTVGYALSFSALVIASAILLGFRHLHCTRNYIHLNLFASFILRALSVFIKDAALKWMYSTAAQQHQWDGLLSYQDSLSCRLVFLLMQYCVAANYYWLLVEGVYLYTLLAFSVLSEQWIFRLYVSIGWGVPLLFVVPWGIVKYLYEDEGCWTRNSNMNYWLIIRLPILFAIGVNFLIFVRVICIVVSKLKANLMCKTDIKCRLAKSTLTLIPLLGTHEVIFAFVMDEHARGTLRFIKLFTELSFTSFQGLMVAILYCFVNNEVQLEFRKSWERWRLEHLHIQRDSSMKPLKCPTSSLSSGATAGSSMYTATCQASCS
# experimental protocol: GLP-1R activation: cAMP increase in CHO cells stably expressing GLP-1R
# Type: cell-based
# particulars: cAMP increase, CHO cells stably expressing GLP-1R, 10 point dose response, 30 minutes incubation; read-out: EC50
Respond with the bare value in nM.

EC50 for N#CCC1(Cn2c(Cc3ccc(-c4cccc(OCc5ccc(C#N)cc5F)n4)cc3F)nc3ccc(C(=O)NS(=O)(=O)C4CC4)cc32)CC1 is 3.4

EC50 for COCCn1c(Cc2cc(F)c(-c3nc(OCc4ccc(C#N)cc4F)ccc3F)cc2F)nc2ccc(C(=O)O)cc21 is 3.34

EC50 for COCCn1c(Cc2c(F)cc(-c3cncnc3OCc3ccc(C#N)cc3F)cc2F)nc2ccc(C(=O)O)cc21 is 3050

EC50 for COCCn1c(Cc2ccc(-c3cccnc3OCc3ccccc3)cc2F)nc2ccc(C(=O)O)cc21 is 3960

EC50 for O=C(O)c1ccc2nc(Cc3c(F)cc(-c4cccc(OCc5ccc(C(F)F)cc5F)n4)c(F)c3F)n(C[C@@H]3CCO3)c2c1 is 0.03

EC50 for COCCn1c(Cc2ccc(-c3cccc(OCc4cccc(C(C)C)c4OC)n3)cc2F)nc2ccc(C(=O)O)cc21 is 534

EC50 for COCCn1c(Cc2ccc(-c3cccc(OCc4ccc(Cl)c(C(C)C)c4)n3)cc2F)nc2ccc(C(=O)O)cc21 is 51.5

EC50 for COC1(Cn2c(Cc3cc(F)c(-c4cccc(OCc5ccc(C#N)cc5F)n4)cc3F)nc3ccc(C(=O)O)cc32)CN(C(=O)C2CC2)C1 is 69.5

EC50 for COCCn1c(Cc2ccc(-c3cccc(OCc4csc(C#N)c4)n3)cc2F)nc2ccc(C(=O)O)cc21 is 317

EC50 for COCCn1c(Cc2ccc(-c3nc(OCc4ccc(C#N)cc4F)ns3)cc2F)nc2ccc(C(=O)O)cc21 is 1430

EC50 for COCCn1c(Cc2cc(F)c(-c3cccc(OCc4ccc(C(N)=O)cc4F)n3)cc2F)nc2ccc(C(=O)O)cc21 is 48.2

EC50 for COCCn1c(Cc2ccc(-c3cccc(OCc4ccc(C#N)cc4F)n3)cc2-c2ccc(C#N)cc2)nc2ccc(C(=O)O)cc21 is 131

EC50 for O=C(O)c1ccc2nc(Cc3cc(F)c(-c4cccc(OCc5cnc(Cl)cc5F)n4)cc3F)n(C[C@@H]3CCO3)c2c1 is 0.25

EC50 for N#Cc1ccc(COc2ncc(F)c(-c3cc(F)c(Cc4nc5c(F)cc(C(=O)O)cc5n4C[C@@H]4CCO4)cc3F)n2)c(F)c1 is 0.18

EC50 for N#Cc1ccc(COc2cccc(-c3cc(F)c(Cc4nc5ccc(C(=O)O)cc5n4CC4(CO)CC4)cc3F)n2)c(F)c1 is 1.18

EC50 for N#Cc1ccc(COc2nc(-c3ccc(Cc4nc5c(F)cc(C(=O)O)cc5n4C[C@@H]4CCO4)c(F)c3)ccc2F)c(F)c1 is 0.05

EC50 for COCCn1c(Cc2ccc(-c3cccc(NC(=O)c4ccc(C#N)cc4F)n3)cc2F)nc2ccc(C(=O)O)cc21 is 2150

EC50 for N#Cc1ccc(COc2cccc(-c3ccc(Cc4nc5ccc(C(=O)O)cc5n4Cc4cscn4)c(F)c3)n2)c(F)c1 is 5.53

EC50 for N#Cc1ccc(COc2nc(-c3cc(F)c(Cc4nc5c(F)cc(C(=O)O)cc5n4C[C@@H]4CCO4)cc3F)ccc2F)c(F)c1 is 0.04

EC50 for COCCn1c(Cc2ccc(-c3cccc(OCc4ccc(Cl)c5ccoc45)n3)cc2F)nc2ccc(C(=O)O)cc21 is 2.59

EC50 for N#Cc1ccc(COc2cccc(-c3ccc(Cc4nc5c(F)cc(C(=O)O)cc5n4C[C@@H]4CCO4)c(F)c3)n2)c(F)c1 is 1.87

EC50 for COC[C@@H](c1ccccc1)n1c(Cc2cc(F)c(-c3cccc(OCc4ccc(C#N)cc4F)n3)cc2F)nc2ccc(C(=O)O)cc21 is 2740

EC50 for COCCn1c(Cc2ccc(-c3cccc(OCc4cnc(Cl)nc4OC)n3)cc2F)nc2ccc(C(=O)O)cc21 is 14.3

EC50 for N#CCC1(Cn2c(Cn3ccc(-c4cccc(OCc5ccc(C#N)cc5F)n4)cc3=O)nc3ccc(C(=O)O)cc32)CC1 is 0.87

EC50 for COCCn1c(Cc2cc(F)c(-c3cccc(OCc4ccc(Cl)cc4F)n3)cc2F)nc2c(F)cc(C(=O)O)cc21 is 0.39

EC50 for COCCn1c(Cc2ccc(-n3ccc(OCc4ccccc4)n3)cc2F)nc2ccc(C(=O)O)cc21 is 1650

EC50 for COCCn1c(Cc2ccc(-c3cccc(OCc4nccnc4OC)n3)cc2F)nc2ccc(C(=O)O)cc21 is 255
